Assay: Stability in mouse plasma
Format: in vitro ADME
Settings: room temperature
Experimental: Stability in Mouse and Human Plasma The stability of the compounds in mouse and human plasma was performed using protein precipitation as sample clean-up and HPLC-MS detection. […] For each analyzed time point ([…]) a 100 μL aliquot of the plasma was removed and protein precipitation (PPT) was performed on the aliquot by adding 900 μL of (ACN:DMSO) 95:5. […] The supernatant was transferred to an HPLC vial and analyzed using HPLC-MS. […]

{"Structure": "CC[C@H]1OC(=O)[C@H](C)[C@@H](O)[C@H](C)[C@@H](O[C@@H]2O[C@H](C)C[C@H](N(C)C(=O)CNC(=O)OCc3ccccc3)[C@H]2O)[C@](C)(O)C[C@@H](C)CN(C)[C@H](C)[C@@H](O)[C@]1(C)O", "Degradation in Mouse Plasma at RT [% per hour]": 3}

* * *

Test: Stability in mouse plasma
Type: in vitro ADME
Settings: room temperature

{"Structure": "CC[C@H]1OC(=O)[C@H](C)[C@@H](O)[C@H](C)[C@@H](O[C@@H]2O[C@H](C)C[C@H](N(C)C(=O)Cc3ccccc3)[C@H]2O)[C@](C)(O)C[C@@H](C)CN(C)[C@H](C)[C@@H](O)[C@]1(C)O", "Degradation in Mouse Plasma at RT": "Stable"}
{"Structure": "CC[C@H]1OC(=O)[C@H](C)[C@@H](O)[C@H](C)[C@@H](O[C@@H]2O[C@H](C)C[C@H](NC)[C@H]2O)[C@](C)(O)C[C@@H](C)CN(C)[C@H](C)[C@@H](O)[C@]1(C)O", "Degradation in Mouse Plasma at RT": "Stable"}
{"Structure": "CC[C@H]1OC(=O)[C@H](C)[C@@H](O)[C@H](C)[C@@H](O[C@@H]2O[C@H](C)C[C@H](N(C)C(=O)CCOc3ccccc3)[C@H]2O)[C@](C)(O)C[C@@H](C)CN(C)[C@H](C)[C@@H](O)[C@]1(C)O", "Degradation in Mouse Plasma at RT": "Stable"}

* * *

Assay: Solubility in 10 mM phosphate buffer (pH 7.4)
Type: physicochemical
Conditions: pH 7.4, aqueous buffer, kinetic from dmso stock, 60 minutes at room temperature, filtered, read-out: MTS Solubility in Buffer (pH 7.4)
Attribute: solubility at 60 min

{"Structure": "CC[C@H]1OC(=O)[C@H](C)[C@@H](O)[C@H](C)[C@@H](O[C@@H]2O[C@H](C)C[C@H](N(C)C(=O)COCc3ccccc3)[C@H]2O)[C@](C)(O)C[C@@H](C)CN(C)[C@H](C)[C@@H](O)[C@]1(C)O", "Unit Descriptor": "µM", "solubility at 60 min": 0.3}
{"Structure": "CC[C@H]1OC(=O)[C@H](C)[C@@H](O)[C@H](C)[C@@H](O[C@@H]2O[C@H](C)C[C@H](N(C)C)[C@H]2OC(=O)c2ccc(-c3ccc(S(C)(=O)=O)cc3)cc2)[C@](C)(O)C[C@@H](C)CN(C)[C@H](C)[C@@H](O)[C@]1(C)O", "Unit Descriptor": "µM", "solubility at 60 min": 0.3}
{"Structure": "CC[C@H]1OC(=O)[C@H](C)[C@@H](O)[C@H](C)[C@@H](O[C@@H]2O[C@H](C)C[C@H](N(C)C(=O)CNC(=O)OCc3ccccc3)[C@H]2O)[C@](C)(O)C[C@@H](C)CN(C)[C@H](C)[C@@H](O)[C@]1(C)O", "Unit Descriptor": "µM", "solubility at 60 min": 0.3}
